Provenance of the data: PubChem BioAssay (EPA / NIEHS)

- Read-out: CD69, CD69 (gene 969)
- procedure.summary: BSK_SAg_CD69: BioMAP Diversity Plus: SAg Assay for CD69 Biomarker Activity (AID 2283089)
- condition: primary human HUVEC with PBMC; actives raise or lower the signal
Calls of active or inactive are those of the source. The calls were made as follows: active = hit-call score of the fitted dose curve at least 0.9, where 1 is the maximum; inactive = score below 0.9.
Labels: active, inactive

[[record]]
molecule = "CCOC(=O)CC(CC(=O)OCC)(OC(C)=O)C(=O)OCC"
class_assignment = "inactive"

[[record]]
molecule = "CN(C)c1ccc(Cc2ccc(N(C)C)cc2)cc1"
class_assignment = "inactive"

[[record]]
molecule = "CC(=O)OCCC(C)C"
class_assignment = "inactive"

[[record]]
molecule = "CC/C(=C\\C(=N/O)C(N)=O)C(C)[N+](=O)[O-] (configuration not stated)"
class_assignment = "inactive"

[[record]]
molecule = "C[C@](N)(Cc1ccc(O)c(O)c1)C(=O)O"
class_assignment = "inactive"

[[record]]
molecule = "O=C1OC(=O)C2C3C=CC(C3)C12 (configuration not stated)"
class_assignment = "inactive"

[[record]]
molecule = "C=CCCCCCCCCC(=O)O"
class_assignment = "inactive"

[[record]]
molecule = "Clc1nc(Cl)c(Cl)c(Cl)c1Cl"
class_assignment = "active"

[[record]]
molecule = "COc1ccc2sc(C(=O)Nc3nnn[nH]3)c(OC(C)C)c2c1"
class_assignment = "active"

[[record]]
molecule = "COc1ccc(-n2nc(C(F)F)cc2-c2ccc(S(C)=O)cc2)cc1 (configuration not stated)"
class_assignment = "active"

[[record]]
molecule = "COC(=O)c1ccccc1O"
class_assignment = "inactive"

[[record]]
molecule = "CCNc1ccccc1"
class_assignment = "inactive"

